Please provide measured pIC50 for the entries that follow.
pIC50 (log units): -log10 of the concentration in mol/L.

Readout pIC50 for `COc1ccc(NC(=O)/C=C/CN(C)C)cc1Nc1ncc(C)c(-c2cnn3ccccc23)n1` , test system Epidermal growth factor receptor (Homo sapiens, UniProt P00533, L858R/T790M), was 6.54

Readout pIC50 for `COc1ccc(NC(=O)/C=C/CN(C)C)cc1Nc1ncc(F)c(-c2cnn3ccccc23)n1` , test system Epidermal growth factor receptor (Homo sapiens, UniProt P00533, L858R/T790M), was 6.66

Readout pIC50 for `COc1ccc(NC(=O)CC#N)cc1Nc1ncc(Cl)c(-c2c[nH]c3ccccc23)n1` , test system Epidermal growth factor receptor (Homo sapiens, UniProt P00533, L858R/T790M), was 5.55

Readout pIC50 for `C=CC(=O)Nc1cc(Nc2nccc(-c3c[nH]c4ccccc34)n2)c(OC)cc1N1CCN(C)CC1` , test system Epidermal growth factor receptor (Homo sapiens, UniProt P00533, L858R/T790M), was 7.17

Readout pIC50 for `C=CC(=O)Nc1ccc(Nc2ncc(Cl)c(-c3c[nH]c4ccccc34)n2)cc1` , test system Epidermal growth factor receptor (Homo sapiens, UniProt P00533, L858R/T790M), was 4.89

Attribution: ChEMBL document CHEMBL2424560
